All values here come from patent US20210363269A1.

Molecular target: T1, BALB/c mouse SIRP-α D1 domain (mouse (BALB/c strain))
T1 chain: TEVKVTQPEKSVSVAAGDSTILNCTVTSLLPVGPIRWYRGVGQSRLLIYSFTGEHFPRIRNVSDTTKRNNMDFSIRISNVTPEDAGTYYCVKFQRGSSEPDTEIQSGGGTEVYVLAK
Test: SPR, antibody immobilised on GLC chip
reported-property: pKd
Scale note: pKd = -log10(concentration in M).

{"columns": ["binder", "measured-result"],
 "data": [
  ["antibody 136 variant Mut/mut (antibody, human IgG1, V domains shown, Human IgG1 with L234A/L235A/G237A/N297A; Labels are light chain/heavy chain) VH: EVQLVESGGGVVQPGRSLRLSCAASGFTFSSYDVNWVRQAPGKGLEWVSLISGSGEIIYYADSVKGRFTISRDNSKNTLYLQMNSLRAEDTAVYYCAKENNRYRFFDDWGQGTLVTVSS VL: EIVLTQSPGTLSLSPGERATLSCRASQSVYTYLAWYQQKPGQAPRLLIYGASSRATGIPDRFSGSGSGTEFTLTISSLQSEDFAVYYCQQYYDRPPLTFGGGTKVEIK", 8.57],
  ["antibody 136 variant MutRv_I2T/mut (antibody, human IgG1, V domains shown, Human IgG1 with L234A/L235A/G237A/N297A; Labels are light chain/heavy chain) VH: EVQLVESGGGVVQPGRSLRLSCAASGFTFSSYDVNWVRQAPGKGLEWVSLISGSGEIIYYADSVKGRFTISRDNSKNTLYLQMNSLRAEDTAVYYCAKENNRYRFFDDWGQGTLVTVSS VL: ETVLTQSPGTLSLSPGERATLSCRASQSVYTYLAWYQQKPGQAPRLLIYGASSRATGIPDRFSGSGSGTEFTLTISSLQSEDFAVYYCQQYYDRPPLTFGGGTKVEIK", 9.37],
  ["antibody 136 variant MutRv_I2T/mut_V34M (antibody, human IgG1, V domains shown, Human IgG1 with L234A/L235A/G237A/N297A; Labels are light chain/heavy chain) VH: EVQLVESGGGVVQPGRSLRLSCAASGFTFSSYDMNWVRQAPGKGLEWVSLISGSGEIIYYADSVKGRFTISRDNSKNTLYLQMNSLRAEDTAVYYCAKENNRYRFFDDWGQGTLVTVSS VL: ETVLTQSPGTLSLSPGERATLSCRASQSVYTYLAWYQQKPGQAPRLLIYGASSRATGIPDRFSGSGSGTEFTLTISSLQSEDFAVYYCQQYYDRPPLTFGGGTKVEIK", 9.44],
  ["antibody 136 variant MutRv_S12T/mut (antibody, human IgG1, V domains shown, Human IgG1 with L234A/L235A/G237A/N297A; Labels are light chain/heavy chain) VH: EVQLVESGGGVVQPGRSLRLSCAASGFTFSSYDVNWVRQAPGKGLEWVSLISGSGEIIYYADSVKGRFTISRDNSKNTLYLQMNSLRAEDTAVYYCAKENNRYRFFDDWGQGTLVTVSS VL: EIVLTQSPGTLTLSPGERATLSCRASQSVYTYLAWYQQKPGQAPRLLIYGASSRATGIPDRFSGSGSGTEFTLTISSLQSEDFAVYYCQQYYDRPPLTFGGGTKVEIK", 8.68],
  ["antibody 136 variant MutRv_Q38E/mut (antibody, human IgG1, V domains shown, Human IgG1 with L234A/L235A/G237A/N297A; Labels are light chain/heavy chain) VH: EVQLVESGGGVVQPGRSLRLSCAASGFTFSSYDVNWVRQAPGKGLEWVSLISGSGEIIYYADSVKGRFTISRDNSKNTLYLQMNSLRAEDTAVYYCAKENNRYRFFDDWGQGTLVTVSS VL: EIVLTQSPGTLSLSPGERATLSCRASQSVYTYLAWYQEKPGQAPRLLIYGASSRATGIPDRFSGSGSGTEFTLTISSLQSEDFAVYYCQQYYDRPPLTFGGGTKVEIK", 8.53]
]}

--- query ---
Q. Which pKd is reported for this binder? antibody 136 variant MutRv_S22T/mut (antibody, human IgG1, V domains shown, Human IgG1 with L234A/L235A/G237A/N297A; Labels are light chain/heavy chain) VH: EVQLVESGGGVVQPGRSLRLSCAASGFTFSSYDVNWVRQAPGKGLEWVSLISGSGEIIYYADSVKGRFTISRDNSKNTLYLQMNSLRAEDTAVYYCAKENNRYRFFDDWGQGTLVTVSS VL: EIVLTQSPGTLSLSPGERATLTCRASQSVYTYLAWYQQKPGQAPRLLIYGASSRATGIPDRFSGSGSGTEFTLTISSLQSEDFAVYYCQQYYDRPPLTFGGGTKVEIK
A. 8.79
